- System tested: KCNQ 2/3 channels (HEK293 cells stably expressing human KCNQ2 and KCNQ3 subunits) (Homo sapiens, UniProt O43525+O43526)
- Construct: expressed in transfected cells; host or cells: HEK293
- Protocol details: KCNQ2/3 channel activation, thallium flux FLIPR assay with BTC-AM dye
- Type: cell-based
- Study conditions: HEK293; maximum response relative to the response produced by 10 μM retigabine (set at 100%); read-out: Max. %
Readout name: Emax (%)

// solved cases for Emax follow
INSERT INTO assay_data (compound, readout_name, unit, test_value) VALUES
  ('O=C(CC1(c2ccc(Cl)cc2)CC1)Nn1nc(C(F)(F)F)c2ccccc2c1=O', 'Emax', '%', 11),
  ('CC(C)c1nn(NC(=O)Cc2cc(F)cc(F)c2)c(=O)c2ccccc12', 'Emax', '%', 136),
  ('O=C(C[C@@H]1C[C@@H]2C=C[C@H]1C2)Nn1nc(C2CCC2)c2ccccc2c1=O', 'Emax', '%', 166),
  ('Cc1ccc(-c2nn(NC(=O)C[C@@H]3C[C@@H]4C=C[C@H]3C4)c(=O)c3ccccc23)c(C)c1', 'Emax', '%', 156),
  ('O=C(Cc1ccc2ccccc2c1)Nn1nc(-c2ccc(Cl)cc2)c2ccccc2c1=O', 'Emax', '%', 201),
  ('O=C(Cc1ccc(Cl)cc1)Nn1nc(-c2ccccc2)c2ccsc2c1=O', 'Emax', '%', 30),
  ('COc1ccc(-c2nn(NC(=O)CC34CC5CC(CC(C5)C3)C4)c(=O)c3ccc(Br)cc23)cc1', 'Emax', '%', 13),
  ('O=C(CC12CC3CC(CC(C3)C1)C2)Nn1nc(-c2ccc(Br)cc2)c2ccccc2c1=O', 'Emax', '%', 193),
  ('O=C(Cc1ccc(F)cc1)Nn1nc(-c2ccccc2)c2ccsc2c1=O', 'Emax', '%', 46),
  ('O=C(Nn1nc(C(F)(F)F)c2ccccc2c1=O)C(F)(F)c1ccccc1', 'Emax', '%', 35);

(A) O=C(CC12CC3CC(CC(C3)C1)C2)Nn1nc(C2CC2)c2ccccc2c1=O
(B) O=C(C[C@H]1C[C@@H]2CC[C@H]1C2)Nn1nc(-c2ccc(C(F)(F)F)cc2)c2ccccc2c1=O (racemic)
[ask] Lower Emax: A or B ? Give the label under which the chosen entry appears.
[reply] B

(I) O=C(Cc1ccsc1)Nn1nc(C(F)(F)F)c2ccccc2c1=O
(II) Cc1nn(NC(=O)Cc2ccc(Cl)cc2)c(=O)c2ccccc12
[ask] Lower Emax: I or II ? Give the label under which the chosen entry appears.
[reply] I
(I: 61%, II: 121%)

Reference source: patent US8629143B2
